Values were extracted from ChEMBL document CHEMBL3994622.

Target: RAF proto-oncogene serine/threonine-protein kinase (Homo sapiens, UniProt P04049)
Sequence (P04049 whole entry): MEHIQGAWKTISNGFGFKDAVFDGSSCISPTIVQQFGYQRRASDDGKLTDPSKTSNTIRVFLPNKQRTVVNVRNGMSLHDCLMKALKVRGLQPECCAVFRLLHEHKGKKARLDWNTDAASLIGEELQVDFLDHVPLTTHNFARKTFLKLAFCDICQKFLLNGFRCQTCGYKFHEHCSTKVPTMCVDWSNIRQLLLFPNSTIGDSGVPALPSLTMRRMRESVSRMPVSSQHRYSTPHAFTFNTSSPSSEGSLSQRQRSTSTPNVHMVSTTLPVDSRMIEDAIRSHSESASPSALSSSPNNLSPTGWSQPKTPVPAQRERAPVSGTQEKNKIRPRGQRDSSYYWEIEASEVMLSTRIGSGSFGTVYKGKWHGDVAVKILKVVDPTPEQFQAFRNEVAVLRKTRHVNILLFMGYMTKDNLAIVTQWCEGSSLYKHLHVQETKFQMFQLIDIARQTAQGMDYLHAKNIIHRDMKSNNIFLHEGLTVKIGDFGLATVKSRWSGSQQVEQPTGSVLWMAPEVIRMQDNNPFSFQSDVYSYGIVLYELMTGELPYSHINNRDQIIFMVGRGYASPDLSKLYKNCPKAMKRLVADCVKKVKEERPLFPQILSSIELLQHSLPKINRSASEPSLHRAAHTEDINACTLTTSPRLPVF
pIC50: −log10 of the molar value.
The following compounds are listed with their measured pIC50 values.
quantity_kind: pIC50

| smiles | endpoint_result |
| --- | --- |
| COc1cc2cc(Oc3ccc(NC(=O)Nc4ccc(Cl)c(C(F)(F)F)c4)cc3)c(C)nc2cc1OC | 7.00 |
| COc1cc2cc(Oc3ccc(NC(=O)Nc4cccc(C(F)(F)F)c4)cc3)c(C)nc2cc1OC | 6.82 |
| COc1cc2cc(Oc3ccc(NC(=O)Nc4cc(C(F)(F)F)cc(C(F)(F)F)c4)cc3)c(C)nc2cc1OC | 6.43 |
| COc1cc2cc(Oc3ccc(NC(=O)Nc4ccc(Cl)c(Cl)c4)cc3)c(C)nc2cc1OC | 6.66 |
